Tested System: HLA DRB1*15:01 (Homo sapiens, UniProt P01903+P01911)
Protocol Notes: biochemical
Format: binding
Measurement Setup: binder threshold 1,000 nM, read-out: In vitro (IC50 nM) DRB1*15:01
Field 'label' (enum: T / F). Set to T when IC50 is strictly under 600 nM; else F.

# Compound, Assigned Category
data = [
    ("CC[C@H](C)[C@H](NC(=O)[C@@H]1CCCN1C(=O)[C@H](CCSC)NC(=O)[C@H](CC(C)C)NC(=O)[C@H](CC(C)C)NC(=O)[C@H](CO)NC(=O)[C@H](Cc1ccc(O)cc1)NC(=O)[C@H](Cc1ccc(O)cc1)NC(=O)[C@@H](N)CO)C(=O)N[C@@H](CC(C)C)C(=O)N[C@H](C(=O)N[C@@H](CC(C)C)C(=O)N[C@H](C(=O)N[C@@H](CCCNC(=N)N)C(=O)N[C@@H](C)C(=O)O)[C@@H](C)O)[C@@H](C)O [NSP12_48]", "T"),
    ("CSCC[C@H](NC(=O)[C@@H](NC(=O)[C@@H]1CCCN1C(=O)[C@H](CC(C)C)NC(=O)[C@H](CC(N)=O)NC(=O)[C@H](Cc1ccc(O)cc1)NC(=O)[C@H](CCCNC(=N)N)NC(=O)[C@H](Cc1ccc(O)cc1)NC(=O)[C@H](Cc1ccc(O)cc1)NC(=O)[C@H](CC(=O)O)NC(=O)[C@H](Cc1ccc(O)cc1)NC(=O)[C@H](CC(=O)O)NC(=O)[C@@H](N)CO)[C@@H](C)O)C(=O)N[C@@H](CS)C(=O)N[C@@H](CC(=O)O)C(=O)O [Peptide 91]", "F"),
    ("CC(C)C[C@H](NC(=O)[C@H](C)NC(=O)[C@H](CC(=O)O)NC(=O)[C@H](CCC(N)=O)NC(=O)[C@H](CC(=O)O)NC(=O)[C@H](CCC(=O)O)NC(=O)[C@@H](N)Cc1ccc(O)cc1)C(=O)N[C@@H](Cc1ccccc1)C(=O)N[C@@H](C)C(=O)N[C@@H](Cc1ccc(O)cc1)C(=O)N[C@H](C(=O)N[C@@H](CCCCN)C(=O)N[C@@H](CCCNC(=N)N)C(=O)N[C@@H](CC(N)=O)C(=O)N[C@H](C(=O)O)C(C)C)[C@@H](C)O [Peptide 105]", "T"),
    ("CC[C@H](C)[C@H](NC(=O)[C@H](CCSC)NC(=O)[C@H](CCSC)NC(=O)[C@H](CO)NC(=O)[C@H](Cc1ccccc1)NC(=O)[C@H](Cc1c[nH]cn1)NC(=O)[C@H](CCCCN)NC(=O)[C@H](CCCNC(=N)N)NC(=O)[C@H](CC(C)C)NC(=O)[C@H](Cc1ccc(O)cc1)NC(=O)[C@H](C)NC(=O)[C@@H](N)Cc1ccc(O)cc1)C(=O)N[C@@H](CC(C)C)C(=O)N[C@@H](CO)C(=O)N[C@@H](CC(=O)O)C(=O)O [Peptide 150]", "T"),
    ("CC(C)C[C@H](NC(=O)[C@H](CCCNC(=N)N)NC(=O)[C@H](Cc1ccc(O)cc1)NC(=O)[C@H](Cc1ccccc1)NC(=O)[C@H](CCCNC(=N)N)NC(=O)[C@H](Cc1c[nH]cn1)NC(=O)[C@H](CO)NC(=O)[C@H](CC(C)C)NC(=O)[C@H](CO)NC(=O)[C@H](CS)NC(=O)[C@H](CS)NC(=O)[C@@H](NC(=O)[C@@H](NC(=O)[C@H](Cc1c[nH]cn1)NC(=O)[C@@H](N)CCCCN)[C@@H](C)O)[C@@H](C)O)C(=O)O [NSP12_129]", "T"),
    ("CC[C@H](C)[C@H](NC(=O)[C@H](CC(=O)O)NC(=O)[C@H](CS)NC(=O)[C@H](CCSC)NC(=O)[C@@H](NC(=O)[C@@H]1CCCN1C(=O)[C@H](CC(C)C)NC(=O)[C@H](CC(N)=O)NC(=O)[C@H](Cc1ccc(O)cc1)NC(=O)[C@H](CCCNC(=N)N)NC(=O)[C@@H](N)Cc1ccc(O)cc1)[C@@H](C)O)C(=O)N[C@@H](CCCNC(=N)N)C(=O)N[C@@H](CCC(N)=O)C(=O)N[C@@H](CC(C)C)C(=O)N[C@@H](CC(C)C)C(=O)O [Peptide 92]", "F"),
    ("CC(C)C[C@H](NC(=O)[C@H](Cc1ccc(O)cc1)NC(=O)[C@H](C)NC(=O)[C@H](Cc1ccc(O)cc1)NC(=O)[C@H](Cc1ccccc1)NC(=O)[C@H](CCC(=O)O)NC(=O)[C@H](CC(N)=O)NC(=O)[C@@H](NC(=O)[C@H](Cc1ccccc1)NC(=O)[C@H](CC(=O)O)NC(=O)[C@@H](NC(=O)[C@H](CC(=O)O)NC(=O)[C@@H](NC(=O)[C@@H](N)CC(=O)O)C(C)C)[C@@H](C)O)C(C)C)C(=O)N[C@@H](CCCNC(=N)N)C(=O)O [Peptide 148]", "F"),
    ("CC[C@H](C)[C@H](NC(=O)[C@@H](NC(=O)[C@@H]1CCCN1C(=O)[C@@H](NC(=O)[C@@H](NC(=O)[C@H](CC(N)=O)NC(=O)[C@H](CCCNC(=N)N)NC(=O)[C@H](CCCCN)NC(=O)[C@@H](NC(=O)[C@H](Cc1ccc(O)cc1)NC(=O)[C@H](C)NC(=O)[C@H](Cc1ccccc1)NC(=O)[C@H](CC(C)C)NC(=O)[C@H](C)N)[C@@H](C)O)C(C)C)[C@@H](C)CC)[C@@H](C)O)C(=O)N[C@H](C(=O)O)[C@@H](C)O [NSP12_106]", "F"),
]

----------
Tested System: HLA DRB1*04:01 (Homo sapiens, UniProt P01903+P01911, A100K/A169T/F76Y/I96L/K127E/L162R/M171V/N62H/P40V/Q125Y/R42H/S133A/S149N/S66Y/V115G/V209L/W38E)
Protocol Notes: biochemical
Format: binding
Measurement Setup: binder threshold 1,000 nM, read-out: In vitro (IC50 nM) DRB1*04:01

# Compound, IC50 / nM
rows = [
    ("CC(C)C[C@H](NC(=O)[C@H](Cc1ccc(O)cc1)NC(=O)[C@H](C)NC(=O)[C@H](Cc1ccc(O)cc1)NC(=O)[C@H](Cc1ccccc1)NC(=O)[C@H](CCC(=O)O)NC(=O)[C@H](CC(N)=O)NC(=O)[C@@H](NC(=O)[C@H](Cc1ccccc1)NC(=O)[C@H](CC(=O)O)NC(=O)[C@@H](NC(=O)[C@H](CC(=O)O)NC(=O)[C@@H](NC(=O)[C@@H](N)CC(=O)O)C(C)C)[C@@H](C)O)C(C)C)C(=O)N[C@@H](CCCNC(=N)N)C(=O)O [Peptide 148]", 16900),
]

----------
Tested System: HLA DRB1*04:05 (Homo sapiens, UniProt P01903+P01911, A100R/A169T/D86S/F76Y/I96L/K127E/L162R/M171V/N62H/P40V/Q125Y/R42H/S133A/S149N/S66Y/V115G/V209L/W38E)
Protocol Notes: biochemical
Type: binding
Measurement Setup: binder threshold 1,000 nM, read-out: In vitro (IC50 nM) DRB1*04:05
Measured Parameter: IC50 (nM)

# Query Smiles, Experimental Value
records = [
    ("CC(C)C[C@H](NC(=O)[C@H](C)NC(=O)[C@H](CCCNC(=N)N)NC(=O)[C@@H](NC(=O)[C@H](CC(C)C)NC(=O)[C@@H](N)[C@@H](C)O)[C@@H](C)O)C(=O)N[C@H](C(=O)N[C@@H](C)C(=O)N[C@@H](CCC(=O)O)C(=O)N[C@@H](CO)C(=O)N[C@@H](Cc1c[nH]cn1)C(=O)N[C@H](C(=O)N[C@@H](CC(=O)O)C(=O)N[C@H](C(=O)N[C@@H](CC(=O)O)C(=O)O)[C@@H](C)O)C(C)C)[C@@H](C)O", 99),
]

----------
Tested System: HLA DRB1*03:01 (Homo sapiens, UniProt P01903+P01911, A100K/A102G/A103R/A169T/F55Y/I96L/K41T/L162R/M171V/P40S/Q125H/Q178H/Q39Y/R42S/S66N/T106N/T262R/W38E/Y61H)
Sequence (P01903 26-254, other chains not shown): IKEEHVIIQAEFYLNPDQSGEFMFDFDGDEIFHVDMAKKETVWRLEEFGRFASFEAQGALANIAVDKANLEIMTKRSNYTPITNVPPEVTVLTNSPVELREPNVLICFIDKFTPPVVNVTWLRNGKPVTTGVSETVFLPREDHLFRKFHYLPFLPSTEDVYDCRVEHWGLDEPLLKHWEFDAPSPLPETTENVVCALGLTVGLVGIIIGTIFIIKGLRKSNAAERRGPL
Protocol Notes: biochemical
Type: binding
Measurement Setup: binder threshold 1,000 nM, read-out: In vitro (IC50 nM) DRB1*03:01
Measured Parameter: IC50 (nM)

# Molecule, Measured Parameter, Experimental Value
measured = [
    ("CC[C@H](C)[C@H](NC(=O)[C@@H]1CCCN1C(=O)[C@H](CCSC)NC(=O)[C@H](CC(C)C)NC(=O)[C@H](CC(C)C)NC(=O)[C@H](CO)NC(=O)[C@H](Cc1ccc(O)cc1)NC(=O)[C@H](Cc1ccc(O)cc1)NC(=O)[C@@H](N)CO)C(=O)N[C@@H](CC(C)C)C(=O)N[C@H](C(=O)N[C@@H](CC(C)C)C(=O)N[C@H](C(=O)N[C@@H](CCCNC(=N)N)C(=O)N[C@@H](C)C(=O)O)[C@@H](C)O)[C@@H](C)O", "IC50", 9120),
    ("CC(C)C[C@H](NC(=O)[C@H](C)NC(=O)[C@H](CC(=O)O)NC(=O)[C@H](CCC(N)=O)NC(=O)[C@H](CC(=O)O)NC(=O)[C@H](CCC(=O)O)NC(=O)[C@@H](N)Cc1ccc(O)cc1)C(=O)N[C@@H](Cc1ccccc1)C(=O)N[C@@H](C)C(=O)N[C@@H](Cc1ccc(O)cc1)C(=O)N[C@H](C(=O)N[C@@H](CCCCN)C(=O)N[C@@H](CCCNC(=N)N)C(=O)N[C@@H](CC(N)=O)C(=O)N[C@H](C(=O)O)C(C)C)[C@@H](C)O [Peptide 105]", "IC50", 39400),
    ("CC(C)C[C@H](NC(=O)[C@H](CCCNC(=N)N)NC(=O)[C@H](Cc1ccc(O)cc1)NC(=O)[C@H](Cc1ccccc1)NC(=O)[C@H](CCCNC(=N)N)NC(=O)[C@H](Cc1c[nH]cn1)NC(=O)[C@H](CO)NC(=O)[C@H](CC(C)C)NC(=O)[C@H](CO)NC(=O)[C@H](CS)NC(=O)[C@H](CS)NC(=O)[C@@H](NC(=O)[C@@H](NC(=O)[C@H](Cc1c[nH]cn1)NC(=O)[C@@H](N)CCCCN)[C@@H](C)O)[C@@H](C)O)C(=O)O", "IC50", 916),
]
